Hello, the source for this data is ChEMBL document CHEMBL6078659, in case you need it.

molecular target: Bifunctional dihydrofolate reductase-thymidylate synthase (Toxoplasma gondii); assay: Inhibition of Toxoplasma gondii Dihydrofolate reductase
Sequence (Q07422 whole entry): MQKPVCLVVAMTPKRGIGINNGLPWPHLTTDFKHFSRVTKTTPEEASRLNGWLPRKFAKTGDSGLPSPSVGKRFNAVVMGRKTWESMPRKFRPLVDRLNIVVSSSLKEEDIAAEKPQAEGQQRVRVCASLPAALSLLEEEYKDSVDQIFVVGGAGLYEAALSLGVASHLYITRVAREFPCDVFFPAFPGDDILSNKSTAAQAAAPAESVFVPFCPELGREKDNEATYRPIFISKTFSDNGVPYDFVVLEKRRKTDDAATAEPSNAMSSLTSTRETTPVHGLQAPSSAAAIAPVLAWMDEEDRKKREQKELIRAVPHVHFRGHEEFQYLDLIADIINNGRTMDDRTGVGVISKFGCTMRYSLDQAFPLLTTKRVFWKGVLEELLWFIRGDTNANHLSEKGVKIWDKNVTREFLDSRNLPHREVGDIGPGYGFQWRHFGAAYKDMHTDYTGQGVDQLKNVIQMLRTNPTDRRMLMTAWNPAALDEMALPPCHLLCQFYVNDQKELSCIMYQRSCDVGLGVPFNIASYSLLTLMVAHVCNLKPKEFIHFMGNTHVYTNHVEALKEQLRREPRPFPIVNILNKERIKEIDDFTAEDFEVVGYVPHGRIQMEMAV
Starred links: 1 amine or outer side, 2 acyl side, 3 side chain; linkers in the order of their positions; H or OH if unused. Non-standard residues stand in square brackets, D forms with d. Residues, ends and D or L forms follow the SMILES beside them. X1 = CC[C@@H](C)[C@@H](O[*:1])C(=O)[*:2]; NMeVal(β-OH) = CN[C@H](C(=O)O)C(C)(C)O; NMeF = CN[C@@H](Cc1ccccc1)C(=O)O; NMeV = CN[C@H](C(=O)O)C(C)C
REPORTED_METRIC: log10 of IC50 (log10 of the value in nM)
Recorded IC50 (log10, nM)

The following compounds have reported results that may help.
Given the entry `CC1(C)N=C(N)N=C(N)N1OCCCOc1ccc(OC(F)(F)F)cc1Cl` , report its measured log10 of IC50.
1.30

Need log10 of IC50 of `O=C(c1ccccc1O)c1[nH]c(Cl)c(Cl)c1-n1c(C(=O)c2ccccc2O)cc(Cl)c1Cl` , thanks.
2.49

What does the data say about its log10 of IC50? Entry: `O=c1cc(-c2cccc3c2Sc2ccccc2S3)oc(N2CCOCC2)c1`
0.33

Others:
GET /values?readout=log10 of IC50&item= `Cc1ccc(CSc2ncnc3c2ncn3[C@@H]2C[C@H](CO)[C@@H](O)[C@H]2O)cc1`
1.08

Reported log10 of IC50, compound `O=C(c1cc(Br)c(F)[nH]1)c1cc(Cl)cc(Cl)c1O` : ____
2.23

Can you share its log10 of IC50? I mean this compound: CC[C@@H](C)[C@H]1OC(=O)[C@H](C(C)(C)O)N(C)C(=O)[C@H](CC(C)C)NC(=O)[C@H](C(C)C)N(C)C(=O)[C@H]([C@@H](C)CC)NC(=O)[C@@H]2CCCN2C(=O)[C@H](Cc2ccccc2)N(C)C(=O)[C@H](Cc2ccccc2)NC(=O)[C@H](C(C)C)N(C)C1=O [BASIFUNGIN] (cyclo(F[NMeF]PI[NMeV]L[NMeVal(β-OH)][X1][NMeV]))
2.48

Sample `O=C(c1ccccc1O)c1[nH]c(Cl)c(Cl)c1-n1c(C(=O)c2ccc(Cl)cc2O)cc(Cl)c1Cl` — what was its log10 of IC50?
2.20

What value of log10 of IC50 has been recorded for this entry: `Cc1cc(C)c(O)c(C(=O)c2cc(Br)c(Br)[nH]2)c1`
1.95

###

experiment: Cytotoxicity against African green monkey Vero cells by MTT assay; format: toxicity, cell-based; settings: African green monkey (Chlorocebus sabaeus)
IC50 by entry:
Form entry: value (µg/mL) — number only.

Suppose we examine the molecule `C/C(=N\Nc1nc(-c2ccc(Cl)c(Cl)c2)cs1)c1ccc(Nc2nc(N)nc(N)n2)cc1` ; what IC50 value has been reported?
14.9

Below: the item to evaluate.
Given the entry `Fc1ccc(-c2csc(N/N=C/C3CC3)n2)cc1` , report its measured IC50.
18

###

system: Toxoplasma gondii; test: Antiparasitic activity against Toxoplasma gondii; assay type: functional, organism-based
Listed next: entries and their corresponding log10(IC50).
Please interpret these as log10 of IC50 where IC50 is in nM.

These recorded examples may help you get a feel for the data.
Param item = CCCCCCCCCCCCCCCCC1(C)SC(=O)C(Cc2ccccc2)=C1O (configuration not stated) ; retrieve measured log10(IC50).
3.78

Any idea what log10(IC50) was measured for `COc1ccc(/C=C/C(=O)C(=Cc2ccc(F)c(F)c2)C(=O)/C=C/c2ccc(OC)c(OC)c2)cc1OC` ?
2.52

Would you kindly share the measured log10(IC50) for COc1cc(/C=C/C(=O)CC(=O)/C=C/c2ccc(O)c(OC)c2)ccc1O [CURCUMIN] ?
4.58

Using the record for Oc1cc(Cl)ccc1Oc1ccc(Cl)cc1Cl [TRICLOSAN] , report its log10(IC50).
3.48

# log10(IC50) lookup, item Oc1ccc(/C=C/c2cc(O)cc(O)c2)cc1 [RESVERATROL]
4.74

Continuing:
Field request: log10(IC50) | item: `COc1ccc(/C(COc2ccc(F)cc2)=N\NC(N)=S)cc1`
3.04

Form field: reported log10(IC50) of CCCCCCCCCCCCCCCCC1(C)SC(=O)C(CCC)=C1O (configuration not stated)
3.30

# query: log10(IC50) of entry `COc1cc(/C=C/C(=O)C(=Cc2ccc(F)c(F)c2)C(=O)/C=C/c2ccc(O)c(OC)c2)ccc1O`
2.90

Which log10(IC50) is reported for this compound? `NC(=S)N/N=C(/COc1ccc(F)cc1)c1ccc(Cl)cc1`
3.08
